Data provenance: paper PMC6148246

value-type: IC50 (nM)
Answer with a number only, understood to be in nM.

Prompt: Field: IC50 (UniProt:Q9Y572). Entry: Cc1ccc(Oc2ccnc3cc(-c4cnn(C5CCNCC5)c4)ccc23)cc1 [HS-1371]
Sequence (Q9Y572 whole entry): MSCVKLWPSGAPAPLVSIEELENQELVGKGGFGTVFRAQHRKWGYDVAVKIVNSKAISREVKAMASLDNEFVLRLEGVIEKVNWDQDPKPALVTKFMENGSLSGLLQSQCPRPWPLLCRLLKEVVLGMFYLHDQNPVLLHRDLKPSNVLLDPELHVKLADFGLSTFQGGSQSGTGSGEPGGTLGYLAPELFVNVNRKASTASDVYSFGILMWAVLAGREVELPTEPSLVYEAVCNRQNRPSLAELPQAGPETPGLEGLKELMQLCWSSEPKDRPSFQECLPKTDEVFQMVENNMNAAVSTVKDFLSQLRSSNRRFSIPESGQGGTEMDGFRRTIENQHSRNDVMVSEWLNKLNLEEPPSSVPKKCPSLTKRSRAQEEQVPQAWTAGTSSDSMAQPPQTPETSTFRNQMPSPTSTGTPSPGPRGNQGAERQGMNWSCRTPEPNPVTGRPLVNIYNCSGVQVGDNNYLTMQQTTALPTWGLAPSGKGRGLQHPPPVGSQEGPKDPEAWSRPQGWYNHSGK
Response: 20.8
